- TARGET UNDER TEST: TBK1 (Homo sapiens, UniProt Q9UHD2)
- ASSAY PROCEDURE: FRET-based Z'-LYTE TBK1 enzymatic assay
- Assay type: biochemical
- Set-up: purchased Thermo Scientific A31513
- CONDITION SET: read-out: TBK1 inhibition (%) 1 μM, compound at 1 μM; 100 µM ATP
Each entry below carries its reported inhibition at 1 µM.
Kindly answer with a numeric value in %, unit omitted.

Known results for compounds:
>>> value_reported("NS(=O)(=O)c1ccc(-c2cnc3[nH]nc(-c4ccc(N5CCOCC5)cc4)c3c2)cc1 [Compound 15m]")
-6
>>> value_reported("CN1CCN(Cc2ccc(-c3cnc4[nH]nc(NCCc5ccc(F)cc5)c4c3)cc2)CC1 [Compound 12e]")
-2.4
>>> value_reported("Cc1nc2cc(-c3n[nH]c4ncc(-c5ccc(S(N)(=O)=O)cc5)cc34)cc(F)c2o1 [Compound 15r]")
5.7

// next entry
Item under review: NS(=O)(=O)c1ccc(-c2cnc3[nH]nc(-c4cc(F)c5cn[nH]c5c4)c3c2)cc1 [Compound 15q] . Reported inhibition at 1 µM?
25.5

====

- ASSAY PROCEDURE: Cytotoxicity to normal cells
- Type: cell-based
- CONDITION SET: human, human umbilical vein endothelial cells (HUVECs)
METRIC: pIC50
# pIC50 is unitless: minus log10 of the molar concentration; print number only

GET /values?readout=pIC50&item= Cc1nc2c(F)cc(-c3n[nH]c4ncc(-c5cccc(S(N)(=O)=O)c5)cc34)cc2n1C(C)C [Compound 15y]
4.67

====

inhibition at 0.01 µM values by entry
- TARGET UNDER TEST: TBK1 (Homo sapiens, UniProt Q9UHD2)
- ASSAY PROCEDURE: FRET-based Z'-LYTE TBK1 enzymatic assay
- Type: biochemical
- Parameters: purchased Thermo Scientific A31513
- CONDITION SET: compound at 10 nM; 100 µM ATP; read-out: TBK1 inhibition (%) 10 nM

A selection of reference data follows.
>>> value_reported("CCn1cnc2ccc(-c3n[nH]c4ncc(-c5ccc(S(N)(=O)=O)cc5)cc34)cc21 [Compound 15u]")
"30%"
>>> value_reported("CC(C)n1cnc2ccc(-c3n[nH]c4ncc(-c5ccc(C(=O)N6CCN(C)CC6)cc5)cc34)cc21 [Compound 15g]")
"29.9%"

Proceeding to the next compound to report its inhibition at 0.01 µM.
# get_value(readout='inhibition at 0.01 µM', item= CC(C)n1cnc2ccc(-c3n[nH]c4ncc(-c5ccc(C(N)=O)cc5)cc34)cc21 [Compound 15h] )
29.1%

====

- TARGET UNDER TEST: TBK1 (Homo sapiens)
- Sequence (Q9UHD2 1-729): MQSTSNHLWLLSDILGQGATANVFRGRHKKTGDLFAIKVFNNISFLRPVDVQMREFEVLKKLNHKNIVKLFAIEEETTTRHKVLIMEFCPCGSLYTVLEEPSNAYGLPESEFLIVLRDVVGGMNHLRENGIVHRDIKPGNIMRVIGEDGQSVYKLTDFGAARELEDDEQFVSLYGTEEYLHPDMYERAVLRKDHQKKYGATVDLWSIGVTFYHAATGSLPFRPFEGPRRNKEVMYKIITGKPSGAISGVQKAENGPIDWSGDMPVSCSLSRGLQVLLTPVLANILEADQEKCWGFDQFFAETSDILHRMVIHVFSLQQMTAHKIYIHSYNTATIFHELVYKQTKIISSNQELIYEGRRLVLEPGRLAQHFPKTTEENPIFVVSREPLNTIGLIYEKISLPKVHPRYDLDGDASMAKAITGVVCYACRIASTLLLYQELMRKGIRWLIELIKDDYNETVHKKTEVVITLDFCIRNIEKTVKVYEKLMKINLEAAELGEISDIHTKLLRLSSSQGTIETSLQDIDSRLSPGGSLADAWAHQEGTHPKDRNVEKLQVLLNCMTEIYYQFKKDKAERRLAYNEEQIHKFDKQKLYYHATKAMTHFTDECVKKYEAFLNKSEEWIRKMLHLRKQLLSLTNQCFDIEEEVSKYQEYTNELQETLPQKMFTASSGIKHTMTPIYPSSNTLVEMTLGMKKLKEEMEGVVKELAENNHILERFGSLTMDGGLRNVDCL
- ASSAY PROCEDURE: FRET-based Z'-LYTE TBK1 enzymatic assay
- Type: biochemical
- Set-up: purchased Thermo Scientific A31513
- CONDITION SET: compound at 100 nM; 100 µM ATP; read-out: TBK1 inhibition (%) 100 nM
METRIC: inhibition at 0.1 µM (%)
Please respond with the number in % and leave the unit unwritten.

>>> value_reported("Cc1nc2c(F)cc(-c3n[nH]c4ncc(-c5ccc(S(N)(=O)=O)cc5)cc34)cc2n1C(C)C [Compound 15t]")
79.5
>>> value_reported("CCn1cnc2ccc(-c3n[nH]c4ncc(-c5ccc(S(N)(=O)=O)cc5)cc34)cc21 [Compound 15u]")
78.1

Okay, now this molecule:
// returns reported inhibition at 0.1 µM for input Cc1nc2c(F)cc(-c3n[nH]c4ncc(-c5ccc(CN6CCN(C)CC6)cc5)cc34)cc2n1C(C)C [Compound 15x]
80.5
